// data source = patent US11390606B2

Reported pIC50 values for the following compounds.
- tested-system: skeletal myofibrils (Rabbit Psoas), myosin ATPase activity
- Construct: Rabbit Psoas Prep 11 (0.25 mg/mL)
- experimental-details: Skeletal Myofibril ATPase Assay
- condition-info: skeletal myofibrils (Rabbit Psoas 0.25 mg/mL), PK/LDH-coupled NADH absorbance at 340 nm
pIC50: −log10 of the molar value.

CCCOc1ccc(-c2ccc(=O)n(Cc3ccc(Cl)cc3)n2)cc1; > 5.00
O=c1ccc(-c2cnc(OCC3(F)COC3)nc2)nn1Cc1ccc(Cl)cc1; > 5.00
O=c1ccc(-c2cnc(OCC(F)(F)F)nc2)nn1Cc1ccc(F)cc1F; > 5.00

--- query ---
GET /value?item= COc1ccc(Cn2nc(-c3ccc(F)cc3)ccc2=O)cc1 &field=pIC50 returns 4.00 to 5.00
